# inhibition values compiled below
- Tested on: Serine/threonine-protein kinase B-raf (Homo sapiens), P15056 [V600E];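 note: enzyme inhibition of the BRAF V599E mutant kinase, given as mean percent inhibition, screened within the GSK PKIS kinase inhibitor set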
- Sequence (P15056 whole entry V600E): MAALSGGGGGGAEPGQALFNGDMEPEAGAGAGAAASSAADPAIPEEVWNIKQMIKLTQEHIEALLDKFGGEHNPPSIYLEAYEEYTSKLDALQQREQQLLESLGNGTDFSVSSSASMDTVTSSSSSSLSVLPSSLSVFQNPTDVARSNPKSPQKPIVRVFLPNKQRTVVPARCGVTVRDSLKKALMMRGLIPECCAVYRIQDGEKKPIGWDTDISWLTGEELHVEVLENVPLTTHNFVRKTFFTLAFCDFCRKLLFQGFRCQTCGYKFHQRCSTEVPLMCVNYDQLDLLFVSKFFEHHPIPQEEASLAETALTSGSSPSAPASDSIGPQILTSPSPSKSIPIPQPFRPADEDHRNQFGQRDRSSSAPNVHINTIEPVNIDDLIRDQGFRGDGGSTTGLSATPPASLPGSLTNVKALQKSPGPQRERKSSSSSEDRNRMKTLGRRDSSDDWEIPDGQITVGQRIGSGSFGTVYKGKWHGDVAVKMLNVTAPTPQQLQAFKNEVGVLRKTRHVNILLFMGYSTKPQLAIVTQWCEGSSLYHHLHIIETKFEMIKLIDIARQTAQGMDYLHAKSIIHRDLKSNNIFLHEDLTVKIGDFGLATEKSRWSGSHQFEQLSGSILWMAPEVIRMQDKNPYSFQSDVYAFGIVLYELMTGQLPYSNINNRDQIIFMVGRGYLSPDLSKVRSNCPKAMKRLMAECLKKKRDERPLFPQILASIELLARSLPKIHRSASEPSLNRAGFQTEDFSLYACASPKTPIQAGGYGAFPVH
- test.parameters: at 1 µM
- Description: GSK_PKIS: BRAF (V599E mutant) mean inhibition at 1 uM [Nanosyn]
Respond with the bare value in %.

inhibition recorded for this molecule, CNC(=O)c1ncccc1Nc1nc(Nc2cc3c(cc2OC)CCCN3C(=O)CN(C)C)nc2[nH]ccc12 , is 9.32

----------
- system.under.test: CDK3/Cyclin E (Homo sapiens) (UniProt P24864+Q00526);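 note: each figure is a mean percent inhibition of the CDK3/cyclin E complex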
- Sequence (P24864 whole entry, looked up): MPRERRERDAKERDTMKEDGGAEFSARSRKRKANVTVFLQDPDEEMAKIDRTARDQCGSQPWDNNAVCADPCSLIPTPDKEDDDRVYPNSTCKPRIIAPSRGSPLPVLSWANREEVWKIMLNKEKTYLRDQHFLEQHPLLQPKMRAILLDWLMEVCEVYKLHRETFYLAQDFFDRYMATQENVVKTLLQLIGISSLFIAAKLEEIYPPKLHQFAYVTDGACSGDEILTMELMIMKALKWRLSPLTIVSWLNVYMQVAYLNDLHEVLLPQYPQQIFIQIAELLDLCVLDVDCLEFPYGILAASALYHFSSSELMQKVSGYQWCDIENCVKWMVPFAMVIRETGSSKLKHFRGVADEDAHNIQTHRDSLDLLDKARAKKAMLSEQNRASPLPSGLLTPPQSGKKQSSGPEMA
- Sequence (Q00526 whole entry, looked up): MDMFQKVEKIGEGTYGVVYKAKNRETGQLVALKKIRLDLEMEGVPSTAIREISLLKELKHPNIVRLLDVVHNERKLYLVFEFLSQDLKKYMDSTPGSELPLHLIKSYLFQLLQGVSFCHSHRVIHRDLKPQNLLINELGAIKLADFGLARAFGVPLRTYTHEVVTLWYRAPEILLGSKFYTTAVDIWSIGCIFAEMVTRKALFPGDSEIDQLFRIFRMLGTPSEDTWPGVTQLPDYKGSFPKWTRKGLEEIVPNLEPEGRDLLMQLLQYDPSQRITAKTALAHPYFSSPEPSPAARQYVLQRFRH
- test.parameters: at 1 µM
reported.metric: inhibition (%)
Respond with the bare value in %.

Worked cases, answers included:
inhibition recorded for this molecule, COc1ccccc1-c1cc(/C=C2\C(=O)Nc3ncc(Br)cc32)cc(Br)c1O , is 1.11

inhibition recorded for this molecule, CNC(=O)c1cncc(/C=C/c2ccccc2C)c1 , is 0.23

inhibition recorded for this molecule, O=C(O[C@H]1CN[C@H](C#Cc2cc3ncnc(Nc4ccc5c(cnn5Cc5ccccc5)c4)c3s2)C1)N1CCOCC1 , is -1.05

inhibition recorded for this molecule, COc1cc2c(cc1Nc1nc(Nc3cccc(F)c3C(N)=O)c3cc[nH]c3n1)N(C(=O)CN1CCN(C(C)C)CC1)CC2 , is -0.76

inhibition recorded for this molecule, CCS(=O)(=O)c1ccc(OC)c(Nc2ncc(-c3cccc(C(C)=O)c3)o2)c1 , is 1.82

inhibition recorded for this molecule, Cc1nnc(-c2cccc(-c3ccc(C(=O)NCC4CC4)cc3)c2)o1 , is -0.73

inhibition recorded for this molecule, c1ccc(-c2n[nH]cc2-c2ccnc(-c3ccc(OCCn4ccnc4)cc3)c2)nc1 , is 0.94

inhibition recorded for this molecule, Cn1c(-c2nonc2N)nc2cnccc21 , is 2.12

Next:
inhibition recorded for this molecule, CS(=O)(=O)Nc1ccc(-c2ccc3c(NC(=O)C4CC4)n[nH]c3c2)cc1 , is 6.25

inhibition recorded for this molecule, COC(=O)Nc1nc2ccc(Oc3ccc(NC(=O)Nc4cc(C(F)(F)F)ccc4F)cc3)cc2s1 , is -0.71

----------
- system.under.test: 5'-AMP-activated protein kinase catalytic subunit alpha-1 (Homo sapiens) (UniProt Q13131);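 note: enzyme tested as the AMPK alpha1 beta1 gamma1 complex, values reported as mean percent inhibition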
- Sequence (Q13131 whole entry, looked up): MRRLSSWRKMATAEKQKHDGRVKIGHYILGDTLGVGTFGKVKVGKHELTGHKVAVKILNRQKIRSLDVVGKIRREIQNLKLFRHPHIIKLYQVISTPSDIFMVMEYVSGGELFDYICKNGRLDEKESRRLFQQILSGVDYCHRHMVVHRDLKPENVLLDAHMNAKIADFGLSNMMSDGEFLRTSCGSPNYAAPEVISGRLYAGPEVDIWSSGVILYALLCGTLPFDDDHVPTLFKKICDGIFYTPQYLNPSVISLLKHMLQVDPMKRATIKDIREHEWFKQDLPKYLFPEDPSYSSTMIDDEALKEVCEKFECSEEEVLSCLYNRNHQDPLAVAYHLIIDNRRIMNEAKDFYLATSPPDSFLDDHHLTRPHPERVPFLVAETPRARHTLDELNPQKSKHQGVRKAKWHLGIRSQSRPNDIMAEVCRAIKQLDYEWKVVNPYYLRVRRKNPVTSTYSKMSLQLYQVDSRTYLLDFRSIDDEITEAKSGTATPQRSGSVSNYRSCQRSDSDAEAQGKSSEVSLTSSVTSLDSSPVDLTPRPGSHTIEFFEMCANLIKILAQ
- test.parameters: at 0.1 µM
- Description: GSK_PKIS: AMPKA1 (A1B1G1) mean inhibition at 0.1 uM [Nanosyn]
reported.metric: inhibition (%)
Respond with the bare value in %.

Worked cases, answers included:
inhibition recorded for this compound, c1ccc(-c2n[nH]cc2-c2ccnc(-c3ccc(OCCn4ccnc4)cc3)c2)nc1 , is 0.79

inhibition recorded for this compound, COc1ccccc1-c1cc(/C=C2\C(=O)Nc3ncc(Br)cc32)cc(Br)c1O , is 4.85

inhibition recorded for this compound, COc1ccc2ncn(-c3cc(O[C@H](C)c4ccccc4C(F)(F)F)c(C(N)=O)s3)c2c1 , is -0.57

Next:
inhibition recorded for this compound, Fc1cccc(COc2ccc(Nc3ncncc3C#Cc3ccccc3)cc2Cl)c1 , is 3.44

inhibition recorded for this compound, Cc1c2ccc(N(C)c3ccnc(Nc4cccc(S(N)(=O)=O)c4)n3)cc2nn1C , is 3.77

inhibition recorded for this compound, CS(=O)(=O)CCNCc1ccc(-c2ccc3ncnc(Nc4ccc(OCc5cccc(C(F)(F)F)c5)cc4)c3c2)o1 , is 1.06

inhibition recorded for this compound, Cc1cc(O)cc(C)c1/C=C/c1cncc(C(N)=O)c1 , is 1.98

inhibition recorded for this compound, CS(=O)(=O)Nc1ccc(-c2ccc3c(NC(=O)C4CC4)n[nH]c3c2)cc1 , is 3.58

inhibition recorded for this compound, N#Cc1ccc2c(-c3ccnc(NC4CC4)n3)c(-c3ccc(F)cc3)nn2c1 , is 0.78

inhibition recorded for this compound, CNC(=O)c1ncccc1Nc1nc(Nc2cc3c(cc2OC)CCCN3C(=O)CN(C)C)nc2[nH]ccc12 , is 5.47

inhibition recorded for this compound, CS(=O)(=O)CCNCc1ccc(-c2ccc3ncnc(Nc4ccc(OCc5ccccc5)cc4)c3c2)o1 , is 2.94

inhibition recorded for this compound, NS(=O)(=O)c1ccc(N/N=C2\C(=O)Nc3cccc(CCc4ccncc4)c32)cc1 , is 4.83
